Origin of the recorded values: patent US20160045505A1

test system: L. donovani HU3 strain in mouse peritoneal macrophages; experiment: Assay for proliferation of Leishmania parasites in infected mouse peritoneal macrophages (SybrGreen staining, high-content imaging, 5 days); format: cell-based, Leishmania donovani; settings: Leishmania donovani, Peritoneal macrophage, L. donovani in mouse peritoneal macrophages, inhibition of proliferation; read-out: L. donovani Macrophage EC50
Can you tell me pEC50 for the items I'm about to list?
Give bare numbers, as −log10 of the molar value.

Known results for molecules:
| Smiles repr | Tested target | pEC50 |
| --- | --- | --- |
| O=C(Nc1ccc(F)c(-c2cn3cc(F)cnc3n2)c1)N1CC[C@@H](F)C1 | L. donovani HU3 strain in mouse peritoneal macrophages | 6.13 |
| CC(C)OC(=O)Nc1cnc2nc(-c3cccc(NC(=O)c4ccc(Cl)o4)c3)cn2c1 | L. donovani HU3 strain in mouse peritoneal macrophages | 6.76 |
| CC(C)OC(=O)Nc1cnc2nc(-c3cc(NC(=O)c4ccc(F)s4)ccc3F)cn2c1 | L. donovani HU3 strain in mouse peritoneal macrophages | 5.95 |
| Cc1nc(C)c(C(=O)Nc2ccc(F)c(-c3cn4cc(-c5ccc(CCN6CCOCC6)cc5)cnc4n3)c2)o1 | L. donovani HU3 strain in mouse peritoneal macrophages | 5.99 |

Report pEC50 for every entry below.
1. CC(C)OC(=O)Nc1cnc2nc(-c3cc(NC(=O)N(C)CC(F)(F)F)ccc3F)cn2c1
2. Cc1nc(C)c(C(=O)Nc2ccc(F)c(-c3cn4cc(-c5ccn(C)n5)cnc4n3)c2)o1

Result:
[6.37, 6.87]

---

system: L. donovani HU3 strain in mouse peritoneal macrophages; assay: Assay for proliferation of Leishmania parasites in infected mouse peritoneal macrophages (SybrGreen staining, high-content imaging, 5 days); assay type: cell-based, Leishmania donovani; conditions: Leishmania donovani, Peritoneal macrophage, L. donovani in mouse peritoneal macrophages, inhibition of proliferation; read-out: L. donovani Macrophage EC50
Test readout: EC50

| Compound | Tested target | Data value |
| --- | --- | --- |
| Cc1nc(C)c(C(=O)Nc2ccc(F)c(-c3cn4cc(NC(=O)[C@@H]5[C@H](N)[C@@H]6C=C[C@H]5C6)cnc4n3)c2)o1 [Compound 180] | L. donovani HU3 strain in mouse peritoneal macrophages | > 50 µM |
| CC(C)OC(=O)Nc1cnc2nc(-c3cc(NC(=O)C(C)C)ccc3F)cn2c1 [Compound 105] | L. donovani HU3 strain in mouse peritoneal macrophages | > 50 µM |
| Cc1nc(C(=O)Nc2ccc(F)c(-c3cn4cc(NC(=O)OC(C)C)cnc4n3)c2)c(C(F)(F)F)o1 [Compound 69] | L. donovani HU3 strain in mouse peritoneal macrophages | 3.3 µM |
| CC(C)OC(=O)Nc1cnc2nc(-c3cc(NC(=O)N4C(C)CCC4C)ccc3Cl)cn2c1 (stereo not shown) [Compound 270] | L. donovani HU3 strain in mouse peritoneal macrophages | 2.2 µM |
| O=C(Nc1ccc(F)c(-c2cn3cc(-c4ccnc(C(F)(F)F)c4)cnc3n2)c1)N1CCCC1 [Compound 341] | L. donovani HU3 strain in mouse peritoneal macrophages | 9.43 µM |

Report EC50 for every entry below.
1. O=C(Nc1ccc(F)c(-c2cn3cc(NC(=O)C4(O)CC4)cnc3n2)c1)N1CCCC1 [Compound 140]
2. Cc1nc(C)c(C(=O)Nc2ccc(F)c(-c3cn4cc(-c5cccc(N6CCN(C(=O)OC(C)(C)C)CC6)n5)cnc4n3)c2)o1 [Compound 368]

Result:
8.38 µM
0.905 µM

---

tested on: Trypanosoma brucei Lister 427 strain, bloodstream form; assay: Assay for proliferation of kinetoplastid parasite Trypanosoma brucei (Cell Titer Glo, 48 hours); assay type: cell-based; conditions: Trypanosoma brucei, T. brucei Lister 427 bloodstream form; read-out: T. brucei EC50
Test readout: pEC50
Give bare numbers, as −log10 of the molar value.

Known results for compounds:
| Compound | Data value |
| --- | --- |
| Cc1nc(C)c(C(=O)Nc2ccc(F)c(-c3cn4cc(-c5ccccc5N)cnc4n3)c2)o1 | 7.10 |
| CC(C)OC(=O)N(C)c1cnc2nc(-c3cc(NC(=O)c4ccc(Cl)o4)ccc3F)cn2c1 | 7.11 |

Report pEC50 for every entry below.
1. Cc1nc(C)c(C(=O)Nc2ccc(F)c(-c3cn4cc(N(C)C(=O)OC(C)C)cnc4n3)c2)o1
2. CC(C)Nc1cnc2nc(-c3cc(NC(=O)N4CC(F)(F)C4)ccc3F)cn2c1
3. COCCOc1cnc2nc(-c3cc(NC(=O)c4oc(C)nc4C)ccc3F)cn2c1
4. CC(C)Nc1cnc2nc(-c3cc(NC(=O)N4CCCC4)ccc3F)cn2c1
5. Cc1nc(C)c(C(=O)Nc2ccc(F)c(-c3cn4cc(C5=CCCCO5)cnc4n3)c2)o1

Result:
1: 6.62; 2: 6.79; 3: 6.22; 4: 7.38; 5: 7.36

---

system: Trypanosoma brucei Lister 427 strain, bloodstream form; experiment: Assay for proliferation of kinetoplastid parasite Trypanosoma brucei (Cell Titer Glo, 48 hours); format: cell-based; conditions: Trypanosoma brucei, T. brucei Lister 427 bloodstream form; read-out: T. brucei EC50
pEC50: −log10 of the molar value.
Param threshold (7) applies to pEC50; output TRUE when value >= threshold, FALSE when value < threshold.

| Compound | Category |
| --- | --- |
| O=C(Nc1ccc(F)c(-c2cn3cc(NC(=O)C(F)(F)F)cnc3n2)c1)N1CCCC1 | FALSE |
| O=C(Nc1ccc(F)c(-c2cn3cc(Br)cnc3n2)c1)N1CCOCC1 | FALSE |
| Cc1nc(C)c(C(=O)Nc2ccc(F)c(-c3cn4cc(C5CCCC5)cnc4n3)c2)o1 | TRUE |

Ask: // inclusive: pEC50 at least 7? input: CC(C)(C)OC(=O)N1CCOCC1C(=O)Nc1ccc(F)c(-c2cn3cc(C4CC4)cnc3n2)c1 (stereo not drawn)
Result: FALSE

---

tested on: Leishmania donovani axenic amastigote parasites; assay: Leishmania donovani axenic amastigote proliferation assay (Cell TiterGlo luminescence, 2 day incubation); assay type: cell-based; conditions: Leishmania donovani, L. donovani axenic amastigotes; read-out: L. donovani amastigotes EC50
pEC50: −log10 of the molar value.
Param threshold (6) applies to pEC50; output t when value >= threshold, f when value < threshold.

Solved cases (6 shown):
| Compound | Category |
| --- | --- |
| CCCNc1cnc2nc(-c3cc(NC(=O)N4CCCC4)ccc3F)cn2c1 | t |
| O=C(Nc1ccc(F)c(-c2cn3cc(OCC4CC4)cnc3n2)c1)N1CCCC1 | t |
| Cc1nc(C)c(C(=O)Nc2ccc(F)c(-c3cn4cc(C5=CCCN(C)C5)cnc4n3)c2)o1 | f |
| O=C1CCC(C(=O)Nc2ccc(F)c(-c3cn4cc(C5CC5)cnc4n3)c2)C1 (stereo not drawn) | f |
| Cc1nc(C)c(C(=O)Nc2ccc(F)c(-c3cn4cc(NC5CC5)cnc4n3)c2)o1 | f |
| CCC(C)Nc1cnc2nc(-c3cc(NC(=O)c4oc(C)nc4C)ccc3F)cn2c1 (stereo not drawn) | t |

Ask: // inclusive: pEC50 at least 6? input: Cc1cccc(-c2cnc3nc(-c4cc(NC(=O)c5oc(C)nc5C)ccc4F)cn3c2)n1
Result: t

Ask: Next compound: Cc1nc(C)c(C(=O)Nc2ccc(F)c(-c3cn4cc(NC5=NCC(C)(C)N5)cnc4n3)c2)o1
Result: f

---

tested on: Trypanosoma brucei Lister 427 strain, bloodstream form; assay: Assay for proliferation of kinetoplastid parasite Trypanosoma brucei (Cell Titer Glo, 48 hours); format: cell-based; conditions: Trypanosoma brucei, read-out: T. brucei EC50 (μM)
Test readout: EC50

| Smiles repr | Data value |
| --- | --- |
| CC(C)OC(=O)Nc1cnc2nc(-c3cc(N4C(=O)c5ccccc5C4=O)ccc3Cl)cn2c1 | > 50 µM |

Ask: Test system Trypanosoma brucei Lister 427 strain, bloodstream form; read-out EC50; what value for O=C(Nc1ccc(Cl)c(-c2cn3cc(-c4ccccn4)cnc3n2)c1)N1CCCC1 ?
Result: 0.054 µM

---

Can you tell me pEC50 for the items I'm about to list?
test system: Leishmania donovani axenic amastigote parasites; assay: Leishmania donovani axenic amastigote proliferation assay (Cell TiterGlo luminescence, 2 day incubation); type: cell-based; conditions: Leishmania donovani, L. donovani axenic amastigotes; read-out: L. donovani amastigotes EC50
Numbers only, as −log10 of the molar value.

| Compound | Data value |
| --- | --- |
| Cc1nc(C)c(C(=O)Nc2ccc(F)c(-c3cn4cc(CN5CCOCC5)cnc4n3)c2)o1 [Compound 616] | 6.22 |
| Cc1nc(C)c(C(=O)Nc2ccc(F)c(-c3cn4cc(NC5=NCC(C)O5)cnc4n3)c2)o1 (centres unmarked) [Compound 504] | 5.53 |
| Cc1nc(C)c(C(=O)Nc2ccc(F)c(-c3cn4cc(-c5cn(C(C)C)cn5)cnc4n3)c2)o1 [Compound 428] | 7.00 |

Report pEC50 for every entry below.
1. Cc1nc(C)c(C(=O)Nc2ccc(F)c(-c3cn4cc(OC(C)C)cnc4n3)c2)o1 [Compound 608]
2. [2H]C([2H])([2H])N(C(=O)Nc1ccc(F)c(-c2cn3cc(C4CC4)cnc3n2)c1)C([2H])([2H])[2H] [Compound 606]
3. Cc1nc(C)c(C(=O)Nc2ccc(F)c(-c3cn4cc(-c5cc(F)ccn5)cnc4n3)c2)o1 [Compound 435]

Result:
1. 6.90
2. 6.26
3. 7.72

Report pEC50 for every entry below.
1. O=C(Nc1ccc(F)c(-c2cn3cc(-c4ccccc4)cnc3n2)c1)c1ccc(F)o1 [Compound 576]
2. Cc1nc(C)c(C(=O)Nc2ccc(F)c(-c3cn4cc(C5CCCC5)cnc4n3)c2)o1 [Compound 422]

Result:
1. 6.28
2. 6.90
